Measured EC50 of individual entries
test: Cytotoxicity against human NCI/ADR cells by phototoxicity labeling study; format: functional; conditions: NCI/ADR-RES, light or radiation study, read-out: ED50 (the source's name)

COMPOUND	RECORDED_ENDPOINT	RESULT
C/C(=C\c1csc(C)n1)[C@@H]1C[C@@H]2O[C@]2(C)CCC[C@H](C)[C@H](O)[C@@H](C)C(=O)C(C)(C)[C@@H](O)CC(=O)O1 [PATUPILONE]	EC50	1.2 nM

Moving on to the next compound.
If you can, please state the reported EC50 value of C/C(=C\c1csc(C)n1)[C@@H]1C/C=C\CCC[C@H](C)[C@H](O)[C@@H](C)C(=O)[C@](C)(CCOC(=O)c2cccc(N=[N+]=[N-])c2)[C@@H](O)CC(=O)O1 . 1000 nM
